# System: BT-549
# assay_procedure: NCI tumour cell line growth inhibition, 48 h
Calls of active or inactive are those of the source. Cut-off read from the data, not from the text of the source: active = GI50 up to about 1.1 µM and inactive = higher.
property_label: GI50

                                   compound                result
0  CC(=O)N1C2=CCCC2(C)c2ccccc21 (centres undefined)   > 100 µM (inactive)
1  CCOC(=O)C(SCCO)C(C(=O)OCC)n1ccc(=O)[nH]c1=O (centres undefined)  > 58.7 µM (inactive)
2  COc1cc(C=O)cc(/C=N/c2ccc(S(N)(=O)=O)cc2)c1O    6.73 µM (inactive)
3  CC(C)N(C(=O)C12C3(C(=O)OC(C)(C)C)C4C5(C#N)C3C1(C(=O)OC(C)(C)C)C5C42C(=O)OC(C)(C)C)C(C)C (centres undefined)   > 100 µM (inactive)

====

# Test system: NCI-H23
# assay_procedure: NCI tumour cell line growth inhibition, 48 h
The source made the active and inactive calls. No stated cut-off is given here; in the data, active = GI50 up to about 1.1 µM and inactive = higher.
Entries annotated with measured GI50
property_label: GI50

In [3]: df
Out[3]:
                                    molecule  property_label               result
 0  CC1(C)C2CCC1(C)[C@H](O)[C@H]2Nc1cc(C(F)(F)F)cc(C(F)(F)F)c1 (stereo partly drawn)            GI50   2.36 µM (inactive)
 1  CCCc1[nH]c2ccccc2c1-c1c(CCC)[nH]c2ccccc12            GI50   8.05 µM (inactive)
 2  O=C(O[C@H](/C=C/c1ccccc1)P1(=O)N(Cc2ccccc2)[C@H]2CCCC[C@@H]2N1Cc1ccccc1)c1ccccc1            GI50   3.51 µM (inactive)
 3          N#CC(C#N)=C1C(C#N)=C(N)NC12OCCO2            GI50  > 100 µM (inactive)
 4        CC1=N/C(=C/c2ccc3c(c2)OCO3)C(=O)O1            GI50  > 100 µM (inactive)
 5  COc1ccc2cc(CNCCCCCCNCc3ccc4cc(OC)ccc4c3)ccc2c1            GI50   2.11 µM (inactive)
 6  BC(=O)NC(CC(C)C)C(=O)NC1c2ccsc2C(=O)C1O.CN(C)C (stereo not drawn)            GI50  > 100 µM (inactive)
 7                      O=C(CCCl)NN=C1NCCCN1            GI50  > 100 µM (inactive)
 8  CCOC(=O)C1C2CCC1CC(=NNc1ccc([N+](=O)[O-])cc1[N+](=O)[O-])C2 (stereo not drawn)            GI50   > 50 µM (inactive)
 9  O=P(c1ccccc1)(c1ccccc1)C(NCc1ccccc1)c1ccc(F)cc1 (stereo not drawn)            GI50   13.6 µM (inactive)
10  C=CCCC(C)N(C(=O)OC(C)(C)C)S(=O)(=O)c1ccc(C)cc1 (stereo not drawn)            GI50  > 100 µM (inactive)
11  NC(CCCC(N)P(=O)(O)c1ccccc1)P(=O)(O)c1ccccc1 (stereo not drawn)            GI50  > 261 µM (inactive)
12  CCCc1[nH]c(SCCCCCCCCSc2nc(-c3ccc(F)cc3)c(CCC)[nH]2)nc1-c1ccc(F)cc1            GI50   4.49 µM (inactive)
13  CCOC(=O)C(SCCO)C(C(=O)OCC)n1ccc(=O)[nH]c1=O (stereo not drawn)            GI50   34.3 µM (inactive)
14                             C=C(C)OCOCCOC            GI50  > 100 µM (inactive)
15  Cc1c(Cl)c(S(N)(=O)=O)cc(S(N)(=O)=O)c1NC(=O)c1ccc(Cl)cc1            GI50  > 100 µM (inactive)
16  CC1C2CC(C(C3C(=O)C4CC3C(C)(C)C4C)C2=O)C1(C)C (stereo not drawn)            GI50  > 100 µM (inactive)
17  N#Cc1c(-c2ccccc2)c2c([nH]c1=O)-c1cc([N+](=O)[O-])ccc1CCC2            GI50   25.2 µM (inactive)
18  Cc1cccc(NC(=O)C(=O)C2C(=O)NC(=O)NC2=O)c1C            GI50  > 100 µM (inactive)
19                 CCCN(CCCN)/[N+]([O-])=N\O            GI50  > 100 µM (inactive)
20          COc1ccc(NC(=O)C(C#N)=C(SC)SC)cc1            GI50  > 100 µM (inactive)
21  COC(=O)C(/C(=N/N)C(=O)Nc1cc(Cl)ccc1Cl)c1nc2ccc([N+](=O)[O-])cc2nc1O (stereo not drawn)            GI50  > 100 µM (inactive)
22              COc1ccc(CCn2ccc(C)n2)c(OC)c1            GI50  > 100 µM (inactive)
23                  O=C1NC(=S)N/C1=C\c1cccs1            GI50  > 100 µM (inactive)
24  CCN(CC)CCCNc1[nH]c2ccccc2c2nc3ccc(OC)cc3c1-2            GI50   1.57 µM (inactive)
25   Cc1cccc(NC(=S)N/N=C2\C(=O)Nc3ccccc32)c1            GI50  > 100 µM (inactive)
26  CC(C)C1=CC2=C(C(=O)C1=O)C13CCCC(C)(C)C1CC2OC3=O (stereo not drawn)            GI50   26.8 µM (inactive)
27  Cc1nc2ccc(C(F)(F)F)cc2nc1Nc1ccc(Cl)c(Cl)c1            GI50   12.6 µM (inactive)

====

Known GI50 of a selection of molecules
# System: A498
# assay_procedure: NCI tumour cell line growth inhibition, 48 h
Activity calls are given as the source filed them. Rule as the data show it: active = GI50 up to about 1.1 µM and inactive = higher.
property_label: GI50

>>> df
                                    molecule               result
 0  CC(=O)N1C2=CCCC2(C)c2ccccc21 (centres undefined)  > 100 µM (inactive)
 1             CN[C@@H](C)[C@@H](NC)c1ccccc1  > 100 µM (inactive)
 2  CC1C=C[C@H](Sc2ccccc2)CC[C@@]1(C)O (some centres undefined)  > 100 µM (inactive)
 3  C[C@]1(CO)[C@H]2CC[C@@]34C=C[C@@](CO)(CC[C@H]3[C@]2(C)CC[C@H]1O)C4  > 100 µM (inactive)
 4        Cc1nc2ccccc2c(-n2cccn2)c1CCn1cccn1   46.3 µM (inactive)
 5        O=C(Nc1nc2c(=O)[nH]cnc2s1)c1ccccc1   83.4 µM (inactive)
 6            C/C(=N\Nc1nc2ccccc2s1)c1ncccn1   3.13 µM (inactive)
 7  CC(=O)C(=CNc1c(C)n(C)n(-c2ccccc2)c1=O)C(C)=O  > 100 µM (inactive)
 8  CCCC(=O)OC1C(C2COC(C)(C)O2)OC2OC(C)(C)OC21 (centres undefined)  > 100 µM (inactive)
 9  CCC(Sc1cc(Cl)c(C)cc1S(=O)(=O)Nc1nc(N)nc(N(C)C)n1)C(=O)O (centres undefined)   > 10 µM (inactive)
10              COc1cc(/N=C\N(C)C)c2ncccc2c1   42.7 µM (inactive)
11  CCOC(=O)CCc1c(C(=O)OCC)[nH]c(/C=C2/NC(=O)C(C)=C2CC)c1C   17.1 µM (inactive)
12  CN(C)/C=N/CC(O)c1ccccc1 (centres undefined)  > 100 µM (inactive)
13  COc1ccc(CNc2nc3cc(C(F)(F)F)ccc3nc2C(=O)O)cc1   21.5 µM (inactive)

====

# Test system: A549
# assay_procedure: NCI tumour cell line growth inhibition, 48 h
Active and inactive are the calls of the source. No stated cut-off is given here; in the data, active = GI50 up to about 1.1 µM and inactive = higher.
Recorded measurements of GI50, one per entry
property_label: GI50

                                    compound                result
 0   O=C1C(=O)c2c(oc(=O)c3ccccc23)-c2ccccc21    > 25 µM (inactive)
 1  COc1ccc2cc(CN3CCC(C4CCN(Cc5ccc6cc(OC)ccc6c5)CC4)CC3)ccc2c1    24.9 µM (inactive)
 2  Nc1ccn(C2(CO)C=C(CO)C(O)C2O)c(=O)n1 (configuration not stated)  > 25.8 µM (inactive)
 3  O=C(c1ccccc1)c1c(-c2ccccc2)[nH]n(-c2ccc([N+](=O)[O-])cc2)c(=O)c1=O    38.5 µM (inactive)
 4  Nc1n[nH]c2c(C(=O)Nc3ccc(Cl)cc3)c(N)n(N)c(=O)c12   > 100 µM (inactive)
 5  CC1=CCC2CC1C(C(=O)c1c[nH]c3ccccc13)=NC2(C)C (configuration not stated)      61 µM (inactive)
 6  CC(SC1=CC(=O)c2c(O)ccc(O)c2C1=O)C(=O)O (configuration not stated)    97.3 µM (inactive)
 7  O=C1C(=O)C2(CC1S(=O)(=O)c1ccccc1)c1ccccc1-c1ccccc12 (configuration not stated)    24.7 µM (inactive)
 8  COc1ccc(C(c2ccc(C(C)C)cc(=O)c2O)c2c(O)cc3oc(-c4ccccc4)cc(=O)c3c2O)cc1 (configuration not stated)    3.35 µM (inactive)
 9                 CCOC(=O)C1=COC(C)(C)CC1=O   > 100 µM (inactive)
10  CCCCCC[N+](C)(C)Cc1ccc(C[N+](C)(C)CCCCCC)cc1    3.36 µM (inactive)
11  NC(=O)C(=O)N/N=C(\CC1(O)C(=O)Nc2ccccc21)c1ccc2ccccc2c1 (configuration not stated)    20.7 µM (inactive)
